Values were extracted from patent US7585859B2.

Entries and their IC50
# Tested Target: PDE4B: The catalytic domain of human PDE4B from S152-S528 (Homo sapiens, UniProt Q07343)
# Construct: His6 (N); thrombin cleavage site (N); made in house; host or cells: E. coli
# Sequence (Q07343 with tags, fused parts or gaps): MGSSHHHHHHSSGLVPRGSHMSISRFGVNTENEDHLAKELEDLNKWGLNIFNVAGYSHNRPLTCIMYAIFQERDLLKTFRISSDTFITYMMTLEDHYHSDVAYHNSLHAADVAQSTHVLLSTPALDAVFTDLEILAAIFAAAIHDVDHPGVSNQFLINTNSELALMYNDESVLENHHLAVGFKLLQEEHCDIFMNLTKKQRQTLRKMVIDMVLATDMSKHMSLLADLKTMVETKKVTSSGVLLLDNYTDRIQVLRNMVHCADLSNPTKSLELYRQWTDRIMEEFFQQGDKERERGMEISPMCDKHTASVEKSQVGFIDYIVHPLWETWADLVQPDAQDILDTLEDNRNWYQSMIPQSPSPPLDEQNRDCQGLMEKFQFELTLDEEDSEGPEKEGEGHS
# Test Description: PDE4 IC50 determination by Scintillation Proximity Assay, PDE4B
# Format: biochemical
# Test Parameters: Table 3A, Formula III compounds; read-out: IC50 PDE4B
# Protocol: IC50s were determined by Scintillation Proximity Assay (SPA). The principle of the assay is based on the fact that cAMP, the PDE4 substrate, binds weakly to Yittrium Silicate SPA beads, whereas AMP, the product of PDE4 hydrolysis binds strongly. Thus, the extent of PDE4 hydrolysis of a sample of [^3H]cAMP can be measured because only the [^3H]AMP produced by PDE4 hydrolysis will bind to the SPA beads and produce a scintillation signal. PDE4 enzymes used for IC50 assays were: […]

Solved entries:
1. COc1cc(NS(=O)(=O)Cc2ccccc2)c2ncccc2c1 | > 10 µM
2. COc1cc(NS(=O)(=O)c2cc(Cl)c(Cl)s2)c2ncccc2c1 | > 10 µM
3. Cn1nc(-c2ccc(S(=O)(=O)Nc3cccc4cccnc34)s2)cc1C(F)(F)F | > 10 µM
4. Cc1ccc2cccnc2c1NS(=O)(=O)c1cc(Cl)sc1Cl | > 10 µM
5. O=S(=O)(Nc1cccc2cccnc12)c1cc(S(=O)(=O)c2ccccc2)cs1 | > 10 µM
6. O=S(=O)(Nc1cccc2cccnc12)c1ccc(Cl)s1 | > 10 µM
7. COc1ccc(Br)cc1S(=O)(=O)Nc1cccc2cccnc12 | > 10 µM
8. O=S(=O)(Nc1cccc2cccnc12)c1ccc(-c2cc(C(F)(F)F)on2)s1 | > 10 µM

Prompt line: For the compound shown here, "COC(=O)c1ccc(S(=O)(=O)Nc2cc(OC)cc3cccnc23)o1" , give the reported IC50.
Response line: > 10 µM

Prompt line: For the compound shown here, "COc1cc(NS(=O)(=O)c2cc(C)ccc2OC)c2ncccc2c1" , give the reported IC50.
Response line: > 10 µM

Prompt line: For the compound shown here, "COc1ccc(NS(=O)(=O)c2ccc(-c3cnco3)s2)c2ncccc12" , give the reported IC50.
Response line: < 10 µM

Prompt line: For the compound shown here, "O=S(=O)(Nc1cccc2cccnc12)c1cccc(Nc2ccncn2)c1" , give the reported IC50.
Response line: < 10 µM

Prompt line: For the compound shown here, "CSc1nccc(-c2ccc(S(=O)(=O)Nc3ccc(Br)c4cccnc34)s2)n1" , give the reported IC50.
Response line: < 10 µM

Prompt line: For the compound shown here, "O=S(=O)(Nc1cccc2cccnc12)c1ccc(Oc2ccccc2)nc1" , give the reported IC50.
Response line: > 10 µM

###

# Tested Target: full-length human PDE4B2 isozyme (Homo sapiens)
# Construct: The full-length human PDE4B2 isozyme; His6 (N); TEV cleavage site (N); made in house; host or cells: baculovirus infected insect cells (unpurified lysate)
# Sequence (Q07343 1-564 isoform Q07343-2): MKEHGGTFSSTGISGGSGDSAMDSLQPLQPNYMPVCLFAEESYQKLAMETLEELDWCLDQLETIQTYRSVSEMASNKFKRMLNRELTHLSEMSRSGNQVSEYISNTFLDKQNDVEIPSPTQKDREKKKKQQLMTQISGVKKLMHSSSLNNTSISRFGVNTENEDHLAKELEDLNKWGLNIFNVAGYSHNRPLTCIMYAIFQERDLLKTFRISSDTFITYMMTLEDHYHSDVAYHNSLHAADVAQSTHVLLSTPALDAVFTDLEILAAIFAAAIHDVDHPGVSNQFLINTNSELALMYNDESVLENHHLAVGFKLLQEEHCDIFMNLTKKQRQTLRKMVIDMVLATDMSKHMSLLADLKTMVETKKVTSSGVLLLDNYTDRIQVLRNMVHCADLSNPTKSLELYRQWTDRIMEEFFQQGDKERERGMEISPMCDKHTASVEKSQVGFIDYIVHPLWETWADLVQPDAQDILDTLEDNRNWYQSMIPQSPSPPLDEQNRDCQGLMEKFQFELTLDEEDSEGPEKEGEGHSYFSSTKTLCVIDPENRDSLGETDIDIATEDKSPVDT
# Test Description: PDE4 IC50 determination by Scintillation Proximity Assay, PDE4B2
# Format: biochemical
# Test Parameters: Table 1B, Formula I compounds; read-out: IC50 PDE4B2
pIC50: −log10 of the molar value.
Measure Name: pIC50

Prompt line: For the compound shown here, "COc1ccc(C(=O)c2sc(Nc3ccc(Cl)cc3)c(C#N)c2N)cc1" , give the reported pIC50.
Response line: > 5.00

Prompt line: For the compound shown here, "N#Cc1c(NCc2cccc(Cl)c2)sc(C(=O)c2cc(-c3ccccc3)no2)c1N" , give the reported pIC50.
Response line: < 5.00

Prompt line: For the compound shown here, "NC(=O)c1c(NC2CCCC2)sc(C(=O)c2cc(-c3ccccc3)no2)c1N" , give the reported pIC50.
Response line: > 5.00

Prompt line: For the compound shown here, "CC(C)(C)Nc1sc(C(=O)c2cc(-c3ccccc3)no2)c(N)c1C#N" , give the reported pIC50.
Response line: > 5.00

Prompt line: For the compound shown here, "N#Cc1c(NC2CCCC2)sc(C(=O)c2ccccn2)c1N" , give the reported pIC50.
Response line: > 5.00

Prompt line: For the compound shown here, "N#Cc1c(NC2CCCC2)sc(C(=O)c2ccccc2)c1N" , give the reported pIC50.
Response line: > 5.00

Prompt line: For the compound shown here, "CSc1cccc(Nc2sc(C(=O)c3ccccc3)c(N)c2C#N)c1" , give the reported pIC50.
Response line: > 5.00

Prompt line: For the compound shown here, "CCOC(=O)c1c(Nc2ccccc2F)sc(C(=O)c2ccc(Cl)cc2)c1N" , give the reported pIC50.
Response line: > 5.00

Prompt line: For the compound shown here, "Cc1ccc(C(=O)c2sc(NC(=O)c3ccccc3C)c(C#N)c2N)c(C)c1" , give the reported pIC50.
Response line: < 5.00

###

Entries and their pIC50
# Tested Target: PDE4B: The catalytic domain of human PDE4B from S152-S528 (Homo sapiens)
# Construct: His6 (N); thrombin cleavage site (N); made in house; host or cells: E. coli
# Test Description: PDE4 IC50 determination by Scintillation Proximity Assay, PDE4B
# Type: biochemical
# Test Parameters: Table 3A, Formula III compounds; read-out: IC50 PDE4B
pIC50: −log10 of the molar value.

Solved entries:
1. COc1ccc(OC)c(S(=O)(=O)Nc2cc(OC)cc3cccnc23)c1 | < 5.00
2. Cc1ccc2cccnc2c1NS(=O)(=O)c1ccc(-c2cc(C(F)(F)F)n(C)n2)s1 | < 5.00
3. Cc1ccc(S(=O)(=O)Nc2cccc3cccnc23)cc1 | < 5.00
4. COc1cc(NS(=O)(=O)c2ccc(-c3ccnc(SC)n3)s2)c2ncccc2c1 | > 5.00

# input for lookup
Prompt line: For the compound shown here, "COc1cc(NS(=O)(=O)c2ccccc2C)c2ncccc2c1" , give the reported pIC50.
Response line: < 5.00

###

# Tested Target: PDE4B: The catalytic domain of human PDE4B from S152-S528 (Homo sapiens)
# Construct: His6 (N); thrombin cleavage site (N); made in house; host or cells: E. coli
# Test Description: PDE4 IC50 determination by Scintillation Proximity Assay, PDE4B
# Type: biochemical
# Test Parameters: Table 1B, Formula I compounds; read-out: IC50 PDE4B
Measure Name: IC50

Solved entries:
1. COC(=O)C(CCSC)Nc1sc(C(=O)c2ccccn2)c(N)c1C#N (centres unmarked) | > 10 µM
2. N#Cc1c(Nc2ccc(C(=O)NC3CCOC3=O)cc2)sc(C(=O)c2csc3ccccc23)c1N (centres unmarked) | < 10 µM

# input for lookup
Prompt line: Identify the measured IC50 of "N#Cc1c(NC2CCCC2)sc(C(=O)c2ccccc2)c1N" for PDE4B: The catalytic domain of human PDE4B from S152-S528 (Homo sapiens).
Response line: < 10 µM

###

# Tested Target: full-length human PDE4D5 isozyme (Homo sapiens)
# Construct: The full-length human PDE4D5 isozyme; His6 (N); TEV cleavage site (N); made in house; host or cells: baculovirus infected insect cells (unpurified lysate)
# Sequence (Q08499 1-745 isoform Q08499-6): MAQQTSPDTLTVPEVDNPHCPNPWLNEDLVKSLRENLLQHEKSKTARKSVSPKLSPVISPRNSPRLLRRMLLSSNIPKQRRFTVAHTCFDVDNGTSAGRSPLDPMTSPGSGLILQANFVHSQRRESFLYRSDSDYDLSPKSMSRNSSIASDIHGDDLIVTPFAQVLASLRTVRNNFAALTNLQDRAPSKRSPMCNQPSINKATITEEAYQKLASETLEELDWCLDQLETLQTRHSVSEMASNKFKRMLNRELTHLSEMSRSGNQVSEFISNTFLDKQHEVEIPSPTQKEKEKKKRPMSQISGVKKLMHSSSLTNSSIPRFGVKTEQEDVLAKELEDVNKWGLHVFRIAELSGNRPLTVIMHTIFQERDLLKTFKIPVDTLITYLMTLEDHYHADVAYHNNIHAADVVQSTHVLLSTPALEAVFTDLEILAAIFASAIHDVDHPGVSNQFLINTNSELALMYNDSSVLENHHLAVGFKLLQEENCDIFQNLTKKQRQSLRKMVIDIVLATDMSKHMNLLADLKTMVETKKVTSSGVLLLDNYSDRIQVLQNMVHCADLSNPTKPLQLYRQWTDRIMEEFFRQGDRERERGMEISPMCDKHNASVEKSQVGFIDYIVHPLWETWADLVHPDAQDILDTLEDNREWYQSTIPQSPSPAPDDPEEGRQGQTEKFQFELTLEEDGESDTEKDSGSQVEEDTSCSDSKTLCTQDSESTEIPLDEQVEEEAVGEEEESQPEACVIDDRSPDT
# Test Description: PDE4 IC50 determination by Scintillation Proximity Assay, PDE4D5
# Assay type: biochemical
# Test Parameters: Table 1B, Formula I compounds; read-out: IC50 PDE4D5
Measure Name: IC50

Solved entries:
1. N#Cc1c(NC2CCCC2)sc(C(=O)c2cc(-c3ccc(Cl)cc3)no2)c1N [Compound 1-173] | > 10 µM
2. COc1ccc(Nc2sc(C(=O)c3ccc(C)cc3C)c(N)c2C#N)cc1 [Compound 1-85] | < 10 µM
3. Cc1ccc(C(=O)c2sc(NC(=O)c3ccccc3C)c(C#N)c2N)c(C)c1 [Compound 1-86] | > 10 µM
4. N#Cc1c(Nc2ccc(C(=O)NC3CCOC3=O)cc2)sc(C(=O)c2ccc(-c3ccccn3)s2)c1N (stereo not shown) [Compound 1-77] | < 10 µM
5. N#Cc1c(NCCN2CCOCC2)sc(C(=O)c2cc(-c3ccccc3)no2)c1N [Compound 1-213] | > 10 µM

Prompt line: Identify the measured IC50 of COc1ccccc1Nc1sc(C(=O)c2cc(-c3ccccc3)no2)c(N)c1C#N [Compound 1-242] for full-length human PDE4D5 isozyme (Homo sapiens).
Response line: < 10 µM

Prompt line: Identify the measured IC50 of N#Cc1c(NC2CC2)sc(C(=O)c2cc(-c3ccccc3)no2)c1N [Compound 1-186] for full-length human PDE4D5 isozyme (Homo sapiens).
Response line: < 10 µM

Prompt line: Identify the measured IC50 of N#Cc1c(NC2CCCC2)sc(C(=O)c2cc(C(=O)NC3CC3)no2)c1N [Compound 1-190] for full-length human PDE4D5 isozyme (Homo sapiens).
Response line: < 10 µM

Prompt line: Identify the measured IC50 of COC(=O)C(CCSC)Nc1sc(C(=O)c2ccc(-c3ccccn3)s2)c(N)c1C#N (stereo not shown) [Compound 1-74] for full-length human PDE4D5 isozyme (Homo sapiens).
Response line: < 10 µM

Prompt line: Identify the measured IC50 of COC(=O)c1ccccc1Nc1sc(C(=O)c2c(-c3ccccc3)noc2C)c(N)c1C#N [Compound 1-130] for full-length human PDE4D5 isozyme (Homo sapiens).
Response line: < 10 µM
